All values here come from ChEMBL document CHEMBL1201862.

Tested on: Hs-578T
protocol.details: NCI tumour cell line growth inhibition, 48 h
The source made the active and inactive calls. Rule as the data show it: active = GI50 up to about 1.1 µM and inactive = higher. Where a SMILES comes first, the peptide text is derived from it. The star is where a group is joined. Boc = CC(C)(C)OC(=O)*
quantity: GI50

>>> print(df.to_string())
                                    compound             reported
 0  O=C(O)c1cc(NC2=C(Cl)C(=O)c3c(O)ccc(O)c3C2=O)ccc1O   > 10 µM (inactive)
 1  CN(C)CCCNC1=C(Cl)C(=O)c2c(O)ccc(O)c2C1=O   1.28 µM (inactive)
 2  CC1(C)SC2C(C(=O)O)N=C(Cc3ccccc3)N2C1C(=O)O (configuration not stated)   29.4 µM (inactive)
 3  CO[C@@]12C[C@H](CNC(=O)c3ccc[nH]3)O[C@@H]1NC(=O)N2  > 100 µM (inactive)
 4  N#C/C(=C\c1ccc2[nH]ccc2c1)C(=O)c1ccc(O)c(O)c1   44.2 µM (inactive)
 5             CN1CCC/C1=C1\C(=O)c2cccn2C1=O  > 100 µM (inactive)
 6            CSc1ccc(NC(=O)Nc2cc(C)ccn2)cc1  > 100 µM (inactive)
 7  C[C@]12CC[C@@H]3c4cc(OCC(F)(F)F)c(O)cc4C(=O)C[C@H]3[C@@H]1CC[C@@H]2O   4.92 µM (inactive)
 8  C=CCC1(c2ccc(OC)cc2)C=CC(=O)CC1 (configuration not stated)   28.5 µM (inactive)
 9       COc1ccc2nc(N/N=C/c3sccc3C)cc(C)c2c1   18.6 µM (inactive)
10  CCCC(=O)NC(NC1CCCCC1)(C(=O)OCC)C(F)(F)F (configuration not stated)  > 100 µM (inactive)
11  Cc1ccc(S(=O)(=O)NC(=O)Nc2cc(Cl)c(S(N)(=O)=O)cc2S(N)(=O)=O)cc1  > 100 µM (inactive)
12  O=[N+]([O-])c1ccc(SN=S=NSc2cccc(SN=S=NSc3ccc([N+](=O)[O-])cc3)c2)cc1   58.3 µM (inactive)
13        C=C1CC2(OC1=O)c1ccccc1C=Cc1ccccc12   2.51 µM (inactive)
14        Cc1cc(NC2=CC(=O)C(=O)c3ccccc32)no1    9.4 µM (inactive)
15  CC(Oc1ccc(Cl)cc1Cl)C(=O)NN1C(=O)CSC1c1ccc(Cl)cc1 (configuration not stated)   64.7 µM (inactive)
16  O=C(NCC(=O)N1CCCC1C(=O)OC(=O)C1CCCN1C(=O)CNC(=O)OCc1ccccc1)OCc1ccccc1 (configuration not stated)  > 100 µM (inactive)
17  O=C(O)C1(CC(CCCN2CCCCC2)c2ccccc2)CCCC1 (configuration not stated)  > 100 µM (inactive)
18               C=CCn1c(N)c(C#N)c(C#N)c1CCC  > 100 µM (inactive)
19  CC(=O)OCC(OC(C)=O)C(OC(C)=O)C(/C=N\Nc1nc2ccccc2c(=O)[nH]1)=N\Nc1nc2ccccc2c(=O)[nH]1 (configuration not stated)  > 100 µM (inactive)
20  COc1ccc(CCNCCCC2c3ccccc3-c3ccccc32)cc1OC   20.1 µM (inactive)
21      COCCOC1=C(Cl)C(=O)c2c(O)ccc(O)c2C1=O   3.24 µM (inactive)
22  COc1ccccc1Cn1c2c(c3c(C(=O)NCCN(C)C)c(O)ccc31)C(=O)c1ccccc1C2=O    1.9 µM (inactive)
23  C=CCn1c(=O)c(C)cn(/C(=C/C(=O)OCC)C(=O)OCC)c1=O   24.5 µM (inactive)
24                    N/C(=N\O)NCCN1CCCCCCC1  > 100 µM (inactive)
25  CC(NC(=O)C(NC(=O)OC(C)(C)C)C(C)C)C(=O)NCC(=O)O (stereo not drawn) (Boc-Val-Ala-Gly-OH; configuration not given here)  > 100 µM (inactive)
26  O=C(O)C(O)C(O)C(O)C(O)c1nc2ccccc2s1 (configuration not stated)   16.7 µM (inactive)
27     CCN(CC)CCN(C(=O)c1ccc(F)cc1)c1ccccc1N   > 10 µM (inactive)
28        Clc1ccc(/N=C/C=C/Nc2ccc(Cl)cn2)nc1   5.14 µM (inactive)
29  CCOC(=O)C1(C(=O)OCC)CCCN1C(=O)[C@H](CNC(=O)OC(C)(C)C)NC(=O)OCc1ccccc1  > 100 µM (inactive)
30         CN1CCN(Cc2nc3c(s2)CCc2sccc2-3)CC1  > 100 µM (inactive)
31  CN1c2ccc(Cl)cc2C(=O)NC1c1ccc([N+](=O)[O-])s1 (configuration not stated)   17.3 µM (inactive)
32  O=C(NNc1cn[nH]c(=O)n1)c1cccc2nc3ccccc3nc12   63.2 µM (inactive)
33  Nc1nc(-c2ccccc2)nc2c1[n+]([O-])c1ccccc1[n+]2[O-]  > 100 µM (inactive)
34  CCC(C)(C)/C(CC(O)(C(F)(F)F)C(F)(F)F)=N\O  > 100 µM (inactive)
35       O/N=C(\C=N\O)c1ccc2c(c1)Sc1ccccc1O2   24.9 µM (inactive)
36  C=C1C(=O)C2=C[C@H]1C[C@H](O)C(=O)[C@]1(C)CCCC(C)(C)[C@H]1C[C@H]2O   2.76 µM (inactive)
37  COc1cc2cc(C(=O)N3CC(CCl)c4c3cc([N+](C)(C)Cc3ccc([N+](=O)[O-])n3C)c3ccccc43)[nH]c2c(OC)c1OC (configuration not stated)   6.76 µM (inactive)
38  COC(OC)C1OC(CO)C(n2ccc(N)nc2=O)C1O (configuration not stated)  > 100 µM (inactive)
39            Nc1c2c(nc3ccccc13)-c1ccccc1CC2   16.4 µM (inactive)
40  COc1cc(C2c3cc4c(cc3OC(N3CCCCC3)C2C)OCO4)cc(OC)c1OC (configuration not stated)   2.09 µM (inactive)
41               Cc1nc2ccc(Cl)cc2c(Cl)c1CCCl   38.1 µM (inactive)
